# System: MOLT-4 leukemia
# assay-method-text: NCI tumour cell line growth inhibition, 48 h
Recorded TGI for the following compounds
Just the number in µM, nothing appended.

Solved cases below.
Give reported TGI for Cc1[nH]c(C(=O)Nc2ccccc2OCc2cccc(C(=O)N3CCC[C@@H](N)C3)c2)c(Cl)c1Cl (MOLT-4 leukemia)
3.43

Report value only: TGI, MOLT-4 leukemia, Cn1cc(-c2cc(N)n3nc(-c4cn(C)c5ccc(F)cc45)cc3n2)c2cc(F)ccc21
7.01

Now consider the entry below.
Provide measured TGI on MOLT-4 leukemia for COC1CCN(Cc2ccc3c(NNC(=O)c4cnccn4)nc4cc(F)ccc4n23)C1 (centres undefined) please.
41.5

Cited source: PubChem BioAssay (NCI)
